biological target: T1, F*-CFTR6 (Homo sapiens); assay: fluorescence polarization
T1 chain: {Fluorescein-Ahx}-VQDTRL
pKd: −log10 of the molar value. Ends that are not written are not given here. Ahx = NCCCCCC(=O)O
observed-property: pKd

>>> observed_value("N1P1 PDZ1 (protein) LPRLCCLEKGPNGYGFHLHGEKGKLGQYIRLVEPGSPAEKAGLLAGDRLVEVNGENVEKETHQQVVSRIRAALNAVRLLVVDPETDE")
6.43
